B1: glmS ribozyme (parent)
chain: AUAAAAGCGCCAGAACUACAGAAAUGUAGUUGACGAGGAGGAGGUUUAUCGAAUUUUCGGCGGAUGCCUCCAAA

Variants of: B1
Assay: self-cleavage kobs at 2500 uM GlcN6P; higher = faster cleavage; RNA array
Conditions: with glucosamine-6-phosphate
Fewer inactive variants are shown than the library holds.
# key: entry, value: self-cleavage kobs at 2500 uM GlcN6P

| chainSequence | self-cleavage kobs at 2500 uM GlcN6P |
| --- | --- |
| AUAAAAGCGCCAGAACUACAGAAAUGUAGUUGCCGAGGAGGAGGUUUAUCGAAUUUUCGGCGGCUGCUUCCAAA | < 1e-05 s⁻¹ |
| AUAAAAGCGCCAGUACUACAGAAAUGUAGUUGACGAGGAGGAGGUUUAUCGAACUUUCGGCGGAUGUCUCCAAA | 0.00131 s⁻¹ |
| AUAAAAGCGCCAGAACUACAGAAAUGUAGUCGACAAGGAGGAGGUUUAUCGAAUUUUCGGCGGAUGCCUCCAAA | < 1e-05 s⁻¹ |
| AUAAAAGCGCCAGGACUACAGAAAUGUAGUUGACGAGGAGGACGUUUAUCGAAUUUCCGGCGGAUGCCUCCAAA | < 1e-05 s⁻¹ |
| AUAAAAGCGCGAGAACUACAGAAAUGUAGUAGACGAGGAGGCGGUUUAUCGAAUUUUCGGCGGAUGCCUCCAAA | < 1e-05 s⁻¹ |
| AUAAAAGCGCCAGAACUACAGAAAUGUACUUGACGAGGAGGAGGUUUAUCGAAUUUUCGGCCGAAGCCUCCAAA | < 1e-05 s⁻¹ |
| AUAAAAGCGCCAGAACUACAUAAAUGUAGUUGACGAGGAGGAGGUUUAUCGAAUUUUCGGCGGAUGCCUGCAAA | 0.000154 s⁻¹ |
| AUAAAAGCGCCAGAACUACAGAAAUGUAGUUGACGAGGAGGCGGUUUACCGAAUUUUUGGCGGAUGCCUCCAAA | < 1e-05 s⁻¹ |
| AUAAAAGCGCCAGAACUACAGAAAUGUAGUUGACGAGGAGGAGGUUUCUCGAAUUUUCGGCGGAUGCCGUCAAA | < 1e-05 s⁻¹ |
| AUAAAAGCGCCAGAACUACAGAAAUGUAGUUGACGAGGAGGAGGUUUAUCGAAUUUUCGGCGGAUGCUUCGAAA | 1.93e-05 s⁻¹ |
| AUAAAAGCGCCAGAAAUACAGAAAUGUAGUUAACGAUGAGGAGGUUUAUCGAAUUUUCGGCGGAUGCCUCCAAA | < 1e-05 s⁻¹ |
